Recorded STA Human Plasma 37 by entry
assay: Plasma stability; assay type: in vitro ADME; set-up: unit not given here; conditions: 37° C., 2 μM substrate
Provide a numeric answer; units are not to be included.

Before answering, review these 5 worked examples.
{"compound": "CCOC(=O)C(C)(C)OC(=O)OC[C@H]1O[C@@](C#N)(c2ccc3c(N)ncnn23)[C@H](O)[C@@H]1O [Compound 77]", "quantity-name": "STA Human Plasma 37", "recorded-measurement": 383.67}
{"compound": "CC(C)OC(=O)Nc1ncnn2c([C@]3(C#N)O[C@H](COC(=O)OC(C)C)[C@@H](O)[C@H]3O)ccc12 [Compound 137]", "quantity-name": "STA Human Plasma 37", "recorded-measurement": 676.3}
{"compound": "N#C[C@@]1(c2ccc3c(N)ncnn23)O[C@H](COC(=O)OC23CC4CC(CC(C4)C2)C3)[C@@H](O)[C@H]1O [Compound 154]", "quantity-name": "STA Human Plasma 37", "recorded-measurement": 1584}
{"compound": "N#C[C@@]1(c2ccc3c(N)ncnn23)O[C@H](COC(=O)OC2CC3(CCC3)C2)[C@@H](O)[C@H]1O [Compound 29]", "quantity-name": "STA Human Plasma 37", "recorded-measurement": 139}
{"compound": "CC1(OC(=O)OC[C@H]2O[C@@](C#N)(c3ccc4c(N)ncnn34)[C@H](O)[C@@H]2O)CCCCCCC1 [Compound 57]", "quantity-name": "STA Human Plasma 37", "recorded-measurement": 317.5}

Would you kindly look at the next entry?
Problem: // returns reported STA Human Plasma 37 for input CC(C)OC(=O)OC[C@H]1O[C@@](C#N)(c2ccc3c(NC(=O)C(C)C)ncnn23)[C@H](OC(=O)C(C)C)[C@@H]1OC(=O)C(C)C [Compound 75]
Solution: 277.1
